Where these numbers come from: ChEMBL document CHEMBL3507680

# cytotoxicity at 70.5 h per entry
experiment: Human HepG2 cell viability assay in 384 well format; assay type: toxicity, cell-based; parameters: dose 125 nL, time 70.5 hour; concentration not given beside the values; conditions: HepG2 cells, read-out: Inhibition
Return type: number; implicit unit %.

Use these answered entries as a reference point.
Cc1nc(CCN(C)C(=O)CN2C(=O)OC[C@@H]2c2ccccc2)no1 : -4.02
CC(C)(C)c1ncc(S(C)(=O)=O)c(C2CCCNC2)n1 (configuration not stated) : -6.75
CN1CCN2C[C@@H](NC(=O)c3nc4ccccc4[nH]3)C[C@H]2C1 : -4.68

Entry under review: CCc1nn(C)c(CC)c1CNC(=O)Nc1cccc([S+](C)[O-])c1 (configuration not stated) . Reported cytotoxicity at 70.5 h?
14.6

Entry under review: COCCn1cc(C(=O)N2CCCC2c2cccc(C)c2)ccc1=O (configuration not stated) . Reported cytotoxicity at 70.5 h?
-4.94

Entry under review: O=c1[nH]c(C2CCOC2)nc2ccc(Cl)cc12 (configuration not stated) . Reported cytotoxicity at 70.5 h?
7.32

Entry under review: COc1cc(NCC(=O)NC(C)(C#N)C(C)C)cc(OC)c1OC (configuration not stated) . Reported cytotoxicity at 70.5 h?
-0.783

Entry under review: CCc1cnc(N2CC[C@H]3[C@@H]2CCC(=O)N3c2ccccc2)nc1 . Reported cytotoxicity at 70.5 h?
14.1

----------
assay: Human HepG2 cell viability assay in 384 well format; assay type: toxicity, cell-based; parameters: dose 125 nL, time 70.5 hour; concentration not given beside the values; conditions: HepG2 cells, read-out: Inhibition
Property Label: cytotoxicity at 70.5 h (%)
Return type: number; implicit unit %.

Entry under review: CS(=O)(=O)CCCOc1cccc(-n2cccn2)c1 . Reported cytotoxicity at 70.5 h?
12.8

Entry under review: Cn1ncc(NCc2cccc(F)c2)c(Cl)c1=O . Reported cytotoxicity at 70.5 h?
-13.3

Entry under review: CCc1cc(O)nc(C2CCCN2C(=O)c2cc(CC)on2)n1 (centres undefined) . Reported cytotoxicity at 70.5 h?
-5.67

Entry under review: CC(NC(=O)NCCCc1n[nH]c(N)c1C#N)c1ccccc1 (centres undefined) . Reported cytotoxicity at 70.5 h?
26.6

Entry under review: CNc1ccc(CC2CCCN(C(=O)c3scnc3C)C2)nn1 (centres undefined) . Reported cytotoxicity at 70.5 h?
-5.63

Entry under review: O=C(NCc1cccs1)c1nc2c(o1)CN(c1ncccn1)C2 . Reported cytotoxicity at 70.5 h?
-6.55

----------
assay: Human HepG2 cell viability assay in 384 well format; assay type: toxicity, cell-based; design: dose 125 nL, time 70.5 hour; concentration not given beside the values; settings: HepG2 cells, read-out: Inhibition
Property Label: cytotoxicity at 70.5 h (%)
Return type: number; implicit unit %.

Use these answered entries as a reference point.
Cc1nn(C)c(N2CCOCC2)c1CNC(C)c1cccs1 (stereo not drawn) : -1.47
CC(=O)N1CCC(C(=O)N2CCC2c2nc(-c3ccc(C)s3)no2)CC1 (stereo not drawn) : 9.04
CNc1nc(C(=O)NCc2cccnc2N(C)C2CCCCC2)cs1 : 12.4
CNC(=O)N1CCOCC1c1c(C)nn(C)c1C (stereo not drawn) : 2.35
O=C(Nc1nc2c(s1)CN(S(=O)(=O)C1CC1)CC2)C1CC1 : 27
COc1cc(C(=O)NS(=O)(=O)c2cccc(C#N)c2)cc(OC)c1C : -9.63
CC(C)(C)NC(=O)CN1CCCN(c2ccc(C#N)cn2)CC1 : -6.98
CN(CCc1ccccn1)C(=O)C(O)c1cc(Cl)cc(Cl)c1 (stereo not drawn) : 42.8

Entry under review: CNc1ncc(-c2csc(NC(=O)C[C@H]3COCCN3)n2)cn1 . Reported cytotoxicity at 70.5 h?
-11.4

Entry under review: CC(Cc1ccco1)NS(=O)(=O)N1CCCCC1 (stereo not drawn) . Reported cytotoxicity at 70.5 h?
-6.18

----------
assay: Human HepG2 cell viability assay in 384 well format; assay type: toxicity, cell-based; design: dose 125 nL, time 70.5 hour; concentration not given beside the values; settings: HepG2 cells, read-out: Inhibition
Property Label: cytotoxicity at 70.5 h (%)
Return type: number; implicit unit %.

CC1(Cc2ccc3c(c2)OCO3)CCCN(S(=O)(=O)N2CCCC2)C1 (stereo not drawn) : 0.304
CN(CCO)Cc1nnc(C2CCN(C(=O)C3CCOCC3)CC2)n1C : 1.69
CC(=O)Nc1ccc(-c2cn(CCn3c(C)cc(C)nc3=O)nn2)cc1 : -6.08
Cc1cccc(CNC(=O)C2CCC(=O)N(Cc3ccccc3F)C2)n1 (stereo not drawn) : -9.23
CNc1nc(CNC(=O)Nc2cccc(CC(F)(F)F)c2)cs1 : -4.82
Cc1cnc2c(C(=O)N(C)Cc3cc(C4CC4)[nH]n3)cnn2c1 : 31.8

Entry under review: Cc1ccccc1C1(C(=O)NCCN2CCC(C)CC2)CCOCC1 . Reported cytotoxicity at 70.5 h?
17.6

Entry under review: CC(C)CCN1CCN(c2ncnc3nc(N)ccc23)CC1 . Reported cytotoxicity at 70.5 h?
-2.35

Entry under review: Cc1cc(C)n(C2CN(Cc3nc4cc(Cl)ccc4n3C)C2)n1 . Reported cytotoxicity at 70.5 h?
4.28

Entry under review: O=C(CC1CCCC1)N1CCN2C[C@@H](CO)[C@H](c3ccccc3)[C@H]2C1 . Reported cytotoxicity at 70.5 h?
24.2

Entry under review: Cc1ncc(CN2CCCC(c3cc(C(F)(F)F)[nH]n3)C2)s1 (stereo not drawn) . Reported cytotoxicity at 70.5 h?
-1.49

Entry under review: Cc1n[nH]c(=O)c2c(NC(=O)CN3CCC(O)CC3)oc(C)c12 . Reported cytotoxicity at 70.5 h?
7.13

Entry under review: Cn1c(N)nnc1SCc1ccc(Cl)cc1Br . Reported cytotoxicity at 70.5 h?
-11.2

Entry under review: Cc1ccncc1-n1cc(CCO)cn1 . Reported cytotoxicity at 70.5 h?
-5.86

Entry under review: Fc1ccc(-c2nnc(CN3CCOC(Cn4cncn4)C3)o2)cc1 (stereo not drawn) . Reported cytotoxicity at 70.5 h?
-28.7

----------
assay: Human HepG2 cell viability assay in 384 well format; assay type: toxicity, cell-based; set-up: dose 125 nL, time 70.5 hour; concentration not given beside the values; conditions: HepG2 cells, read-out: Inhibition
# cytotoxicity at 70.5 h per entry
Return type: number; implicit unit %.

O=C(Cn1cccn1)NCC1(c2ccccc2)CC1 : 24.2

Entry under review: CCc1nc(C)c(C(=O)NCCNC(=O)c2cccs2)s1 . Reported cytotoxicity at 70.5 h?
15.7

Entry under review: Cc1cnn(CC2CCCN2CCc2nc3ccccc3c(=O)[nH]2)c1 (stereo unspecified) . Reported cytotoxicity at 70.5 h?
0.164

----------
experiment: Human HepG2 cell viability assay in 384 well format; format: toxicity, cell-based; design: dose 125 nL, time 70.5 hour; concentration not given beside the values; details: HepG2 cells, read-out: Inhibition
# cytotoxicity at 70.5 h per entry
Return type: number; implicit unit %.

Cc1nc(CN2C(=O)CCC23CCN(Cc2ccco2)CC3)cs1 : -1.31
CN(CC(=O)Nc1cc(-c2cc(Cl)cc(Cl)c2)[nH]n1)S(C)(=O)=O : -5.73
COc1ccccc1C1(CNc2ccnc(C(=O)N(C)C)c2)CC1 : 33.4

Entry under review: CC(=O)NC1(C(=O)N2CCC(Nc3cccnn3)CC2)CCCCC1 . Reported cytotoxicity at 70.5 h?
3.94

Entry under review: CCCc1nc(N2CC[C@@H](c3ccc4ccccc4c3)[C@H](O)C2)no1 . Reported cytotoxicity at 70.5 h?
-0.24

Entry under review: CSc1ccsc1C(=O)NC(C)c1ccc2c(c1)CCC(=O)N2 (centres undefined) . Reported cytotoxicity at 70.5 h?
11.2

Entry under review: COc1cccc(-c2n[nH]cc2CNC2CCC(O)CC2)c1 (centres undefined) . Reported cytotoxicity at 70.5 h?
-15.9

Entry under review: Cc1nc2[nH]cnc(Nc3cnn(C)c3)c-2n1 . Reported cytotoxicity at 70.5 h?
0.28

Entry under review: O=C(Cn1cc(I)cn1)N1CCNC1=O . Reported cytotoxicity at 70.5 h?
-8.59

Entry under review: Cc1cccc(CN2C[C@@H]3CN(C(=O)c4ccco4)C[C@@H]3C2=O)c1 . Reported cytotoxicity at 70.5 h?
-1.41

Entry under review: O=C1CCc2cc(NC(=O)C3CCCN3c3nccs3)ccc2N1 (centres undefined) . Reported cytotoxicity at 70.5 h?
-1.9

Entry under review: CN(C)CCNC(=O)c1sc2ccccc2c1C1CCC(CN)CC1 (centres undefined) . Reported cytotoxicity at 70.5 h?
8.65

Entry under review: Cc1cc(C)n(C2CCCN(C(=O)c3cc(C(N)=O)cs3)C2)n1 (centres undefined) . Reported cytotoxicity at 70.5 h?
0.983

Entry under review: CC(C)(C)CCN1CCN(c2snc(Cl)c2C#N)CC1 . Reported cytotoxicity at 70.5 h?
4.63
